assay: physchem
observation_type: pKa

Enquiry: Quickly give me recorded pKa for `N[C@@H](Cc1cc(I)c(Oc2ccc(O)c(I)c2)c(I)c1)C(=O)O`
Return: 8.94
